Source listed as ChEMBL document CHEMBL1201862.

Assignment: determine reported GI50 for the given compounds.
Tested on: MCF7
assay.details: NCI tumour cell line growth inhibition, 48 h
Activity calls are given as the source filed them. Cut-off read from the data, not from the text of the source: active = GI50 up to about 1.1 µM and inactive = higher.

Solved cases below.
compound	GI50
COc1ccc(/N=C/C=C/Nc2ccc(OC)cc2)cc1	4.75 µM (inactive)
CO/N=C(\C(=O)Nn1cn[n+](CC(=O)[O-])c1)c1csc(N)n1	> 10 µM (inactive)
N#Cc1nc(CCCCCN2C(=O)c3ccccc3C2=O)oc1N	> 100 µM (inactive)

Give GI50 for each listed item.
1. Cc1ccc([N+](=O)[O-])cc1S(=O)(=O)Nc1ccc(C2=NN(C(=O)c3ccccc3)C(c3ccccc3)C2)cc1 (configuration not stated)
2. CN(C)c1ccc(C2CC(c3ccc4ccccc4c3O)=NN2)cc1 (configuration not stated)

Result string:
17.1 µM (inactive)
27.7 µM (inactive)

Parameters: items (list). Returns: GI50 for each item.
1. Nc1nc(NNc2ccccc2F)cc(=O)[nH]1
2. CC(C)C(=O)OCC1CCCN2CCCCC12 (configuration not stated)
3. COC(=O)c1cc(OCc2cc(OCc3ccc(Br)cc3)cc(OCc3ccc(Br)cc3)c2)cc(OCc2cc(OCc3ccc(Br)cc3)cc(OCc3ccc(Br)cc3)c2)c1
4. Cc1nnc(CC#N)n1NC(=O)CC#N
5. COc1nc(C#CC2CCCCC2)nc(OC)n1

Result string:
["> 100 µM (inactive)", "48.1 µM (inactive)", "> 100 µM (inactive)", "> 100 µM (inactive)", "2.14 µM (inactive)"]

Dear colleague, could you send me GI50 for each of the items below? Thanks.
1. O=c1[nH]nc(Cc2ccccc2)n1N=C1CCCCC1
2. CN(C)/C=N/n1c2ccccc2c2ccccc21

Result string:
> 100 µM (inactive)
> 100 µM (inactive)

* * *

System: CCRF-CEM
assay.details: NCI tumour cell line growth inhibition, 48 h
Activity calls are given as the source filed them. Cut-off read from the data, not from the text of the source: active = GI50 up to about 1.1 µM and inactive = higher.
Provide the recorded GI50 for the entries that follow.

Solved entries:
compound	value.reported
COC(=O)Cc1cc(=O)[nH]c2c1C(=O)CCC2	> 100 µM (inactive)
CC[C@]12C=CCN3CC[C@@]4(c5ccc(OC)cc5N(C)[C@H]4[C@@](O)(C(=O)OC)[C@@H]1OC(C)=O)[C@@H]32	132 µM (inactive)
CC(=O)CC(=O)CCCC(=O)Nc1ccc(Cl)cc1C	> 100 µM (inactive)

# per-item lookup of GI50; items listed below
1. CCCCCCC(CCl)c1sc(-c2csc(CCNC(=O)OC(C)(C)C)n2)nc1C(=O)OC (stereo not given)
2. CC(=O)NC(CCCN(Cc1ccccc1)C(=O)N(C)N=O)C(=O)NCc1ccccc1 (stereo not given)

Result string:
1. 17.2 µM (inactive)
2. > 100 µM (inactive)

* * *

Test system: Malme-3M
assay.details: NCI tumour cell line growth inhibition, 48 h
The source made the active and inactive calls. Rule as the data show it: active = GI50 up to about 1.1 µM and inactive = higher.
Return exactly one item of 1 for active, 0 for inactive

Solved cases below.
molecule	target.or.system	classification
COc1ccc(Cc2c(=O)[nH]nc3ccccc23)cc1	Malme-3M	0
O=C(NCCCCCCNC(=O)n1cc(F)c(=O)[nH]c1=O)NCCCOCCOCCOCCOCCOCCOCCOCCOCCOCCOCCOCCOCCOCCOCCOCCOCCOCCOCCOCCOCCOCCCNC(=O)C(O)C(O)C(O)C(O)CO (stereo not given)	Malme-3M	0
Cc1cccc(C(C)(C)C)c1NC(=O)CC1Sc2ccccc2NC1=O (stereo not given)	Malme-3M	0
c1ccc2[nH]c3nc4ccccc4c-3cc2c1	Malme-3M	1

Query string: Which outcome was assigned to "c1ccc2cc(-c3cc4ccccc4s3)ccc2c1" in this test?
Result string: 0

Query string: Test call for this molecule, please: "CC(C)(Oc1ccc(Cl)cc1)C(=O)N(C(=O)N1CCCCC1)c1ccccc1"
Result string: 0

Query string: I would be grateful if you could indicate the recorded call for "C/C(=N\Nc1nc2ccccc2s1)c1cc(C)ncn1" .
Result string: 1

Query string: Any idea what this test logged for Cc1cn(C2CC(O)C(Cn3cc(Cn4nc(Br)c(=O)[nH]c4=O)nn3)O2)c(=O)[nH]c1=O (stereo not given) ?
Result string: 0

Query string: Could you check what this test reported for O=C1C2SC34c5c2c2ccccc2n5CCC3CCCN14 (stereo not given) ?
Result string: 0

Query string: What did the test return for "Cc1cc2ncc3c(=O)n(NS(=O)(=O)c4ccc(N)cc4)ccc3n2n1" ?
Result string: 0
